Below is a list of entries, each paired with its recorded hPPAR; Relative activity α value.
assayed-target: human PPARα (Homo sapiens)
Construct: 166th to 467th amino acids of human PPARα; expressed in transfected cells; host or cells: COS cells (African green monkey kidney)
Sequence (Q07869 166-467): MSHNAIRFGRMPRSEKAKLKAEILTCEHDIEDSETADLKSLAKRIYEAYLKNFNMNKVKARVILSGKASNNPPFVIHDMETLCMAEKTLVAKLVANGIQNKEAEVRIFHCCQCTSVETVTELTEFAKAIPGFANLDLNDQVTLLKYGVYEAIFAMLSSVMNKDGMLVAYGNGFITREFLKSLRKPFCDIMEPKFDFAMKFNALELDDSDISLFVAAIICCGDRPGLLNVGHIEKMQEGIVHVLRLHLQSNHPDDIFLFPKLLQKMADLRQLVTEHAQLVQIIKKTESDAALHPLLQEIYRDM
assay-remarks: Gal4-human PPARα chimera luciferase transfection assay in COS cells
Assay type: cell-based
reported-conditions: compound added at 1 μM, luciferase activity with WY14643 10 μM given as 10.0, 16 hours
Response field accepts a number only; no unit should be typed.

Worked cases, answers included:
O=C(O)c1ccccc1SCCN(CCCc1ccccc1)c1nc2ccccc2o1 : 13.3
CCCCN(CCCCCSc1ccccc1C(=O)O)c1nc2ccccc2o1 : 11.0

INPUT: # get_value(readout='hPPAR; Relative activity α', item= CCN(CCCCSc1ccccc1C(=O)O)c1nc2ccccc2s1 )
OUTPUT: 16.2

INPUT: And CCCCCCN(CCCCSc1ccccc1C(=O)O)c1nc2ccccc2o1 ?
OUTPUT: 12.3

INPUT: Try the molecule O=C(O)c1ccccc1SCCCCCN(CCCc1ccccc1)c1nc2ccccc2o1
OUTPUT: 18.7

INPUT: Similarly, CN(CCCCCSc1ccccc1C(=O)O)c1nc2ccccc2o1 ?
OUTPUT: 20.2

INPUT: Follow-up entry: CCCCCCCN(CCCOc1cccc(C(=O)O)c1)c1nc2ccccc2o1
OUTPUT: 15.1

// data source = patent US7301033B2
